Catalogue of compounds with associated pIC50
- target_system: GABAa receptor
- method_description: GABAa receptor binding assay, displacement of 3H-RO15-1788 from rat cortical tissue
- cond: 0.5 nM 3H-RO15-1788, rat cortical homogenate, 4° C., nonspecific binding with 1.0 μM diazepam
Hey, just a heads up that pIC50 is the negative log base 10 of the concentration in molar.

Form entry - test system: GABAa receptor; read-out: pIC50; compound: CC(C)OC(=O)C1CCc2[nH]c(=O)n3cc(-c4ccccc4F)nc3c2C1 (stereo not shown) [Compound 14]
8.00

So what pIC50 did COc1ccc(-c2cn3c(=O)[nH]c4c(c3n2)CCCC4)c(F)c1 [Compound 51] get with GABAa receptor?
8.52

What reported pIC50 corresponds to CC(C)(C)OC(=O)NC1CCc2[nH]c(=O)n3cc(-c4ccccc4F)nc3c2C1 (stereo not shown) [Compound 28] on GABAa receptor?
6.82

Missing value: pIC50, GABAa receptor, entry O=c1[nH]c2c(c3nc(-c4ccccc4)cn13)CCC2 [Compound 12] . Fill in?
6.40

Find pIC50 (GABAa receptor) for the entry CCOC(=O)C1CCc2[nH]c(=O)n3cc(-c4ccccc4F)nc3c2C1 (stereo not shown) [Compound 1]
8.15

I'm curious: which pIC50 was measured for CN(C)C(=O)C1CCc2[nH]c(=O)n3cc(-c4ccccc4F)nc3c2C1 (stereo not shown) [Compound 18] tested on GABAa receptor?
8.00

* * *

Listed here: items and their measured IC50.
- target_system: GABAa receptor
- method_description: GABAa receptor binding assay, displacement of 3H-RO15-1788 from rat cortical tissue
- cond: 0.5 nM 3H-RO15-1788, rat cortical homogenate, 4° C., nonspecific binding with 1.0 μM diazepam
Counter-ions that a name gives are not always drawn.
Give just the number in µM; leave the unit off.

- compound: "O=c1[nH]c2c(c3nc(-c4ccccc4)cn13)CCCCC2 [Compound 13]"
  IC50 / µM: 0.8
- compound: "O=c1[nH]c2c(c3nc(-c4ccccc4F)cn13)CCCC2 [Compound 5]"
  IC50 / µM: 0.007
- compound: "CCOc1nc2c(c3nc(-c4ccccc4F)cn13)CCCC2 [Compound 39]"
  IC50 / µM: 5

// returns reported IC50 for input COc1ccc(-c2cn3c(=O)[nH]c4c(c3n2)CCCC4)cc1 [Compound 50]
0.05

Please look up its IC50: Fc1ccccc1-c1cn2c(NCc3ccccc3)nc3c(c2n1)CCCC3 [Compound 31]
2

# get_value(readout='IC50', item= Nc1nc2c(c3nc(-c4ccccc4F)cn13)CCCC2 [Compound 33] )
0.1

Tell me the measured IC50 of CN(C)CC1CCc2[nH]c(=O)n3cc(-c4ccccc4F)nc3c2C1 (stereo not shown) [Compound 24, monohydrochloride] , please.
0.03
